The reported measurements were obtained from patent US9150546B2.

targetUnderTest: UniProt P56373
protocolText: P2X3 receptor inhibition, ATP-evoked Fluo-3 fluorescence (FDSS 3000)
conditions: C6BU-1 cell transfected with human P2X3 receptor gene
propertyName: pIC50
pIC50 is a log-scale quantity: -log10 of the concentration expressed in molar.

{"compound": "CC(C)n1c(=O)nc(Nc2cccc(F)c2)n(Cc2ccc(F)cc2)c1=O", "pIC50": 6.15}
{"compound": "COC(=O)C[C@@H](C)n1c(=O)[nH]/c(=N\\c2ccc(OC(C)C)c(Cl)c2)n(Cc2ccc(Cl)cc2)c1=O", "pIC50": 8.30}
{"compound": "COC(=O)[C@@H](C)Cn1c(=O)nc(Nc2ccc(OC(C)C)cc2)n(Cc2ccc(Cl)cc2)c1=O", "pIC50": 7.66}
{"compound": "COC(=O)C(C)n1c(=O)[nH]/c(=N\\c2ccc(OC(C)C)c(F)c2)n(Cc2ccc(Cl)cc2)c1=O (centres unmarked)", "pIC50": 7.85}
{"compound": "CC(C)Oc1ccc(Nc2nc(=O)n(CC3CCOCC3)c(=O)n2Cc2ccc(Cl)cc2)cc1F", "pIC50": 7.68}

Query string: pIC50 lookup needed for COc1ccc(Nc2nc(=O)n(CCO)c(=O)n2Cc2ccc(Cl)cc2)cc1F , thanks.
Result string: 6.02

Query string: So what's the measured pIC50 for this one? CC(C)Oc1ccc(Nc2nc(=O)n(CCOC3CCCCO3)c(=O)n2Cc2ccc(Cl)cc2)cc1F (centres unmarked)
Result string: 8.22

Query string: Need pIC50 of COC(=O)[C@H](C)Cn1c(=O)[nH]/c(=N\c2ccc3oc(C)cc3c2)n(Cc2ccc(Cl)cc2)c1=O , thanks.
Result string: 8.30

* * *

targetUnderTest: human P2X3 receptor (Homo sapiens (Human))
Sequence (P56373 whole entry): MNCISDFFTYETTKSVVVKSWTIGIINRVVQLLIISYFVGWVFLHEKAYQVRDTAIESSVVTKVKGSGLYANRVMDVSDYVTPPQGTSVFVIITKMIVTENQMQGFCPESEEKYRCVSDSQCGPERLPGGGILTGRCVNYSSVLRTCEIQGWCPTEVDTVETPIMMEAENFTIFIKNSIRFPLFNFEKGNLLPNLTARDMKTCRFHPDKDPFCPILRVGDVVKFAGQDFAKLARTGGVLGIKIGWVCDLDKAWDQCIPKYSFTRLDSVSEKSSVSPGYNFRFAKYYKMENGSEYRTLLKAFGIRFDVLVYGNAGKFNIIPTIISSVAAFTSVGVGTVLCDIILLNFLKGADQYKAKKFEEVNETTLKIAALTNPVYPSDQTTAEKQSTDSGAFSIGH
protocolText: P2X3 receptor inhibition, ATP-evoked Fluo-3 fluorescence (FDSS 3000)
conditions: C6BU-1 cell transfected with human P2X3 receptor gene
Param label: returns T when IC50 < 100 nM, returns F otherwise, including exact equality.

Solved cases (4 shown):
{"testSmiles": "CCn1c(=O)nc(Nc2ccc(Oc3ccccc3)cc2)n(Cc2ccc(F)cc2)c1=O", "classAssignment": "F"}
{"testSmiles": "CC(C)Oc1ccc(Nc2nc(=O)n(CCNC(N)=O)c(=O)n2Cc2ccc(Cl)cc2)cc1F", "classAssignment": "T"}
{"testSmiles": "CC(C)Oc1ccc(Nc2nc(=O)n(C(C)C)c(=O)n2Cc2ccc(Cl)cc2)cc1C#N", "classAssignment": "F"}
{"testSmiles": "Cc1cc(/N=c2\\[nH]c(=O)n(CC(C)(C)C(=O)O)c(=O)n2Cc2ccc(Cl)cc2)ccc1OC(C)C", "classAssignment": "T"}

Query string: Hello, I'm reviewing records and need to know if IC50 of CSc1cccc(Nc2nc(=O)n(C(C)C)c(=O)n2Cc2ccc(C)cc2)c1 is below 100 nM. Could you check?
Result string: F

Query string: Is the reported IC50 for CC(C)Oc1ccc(Nc2nc(=O)n(CC(CO)CO)c(=O)n2Cc2ccc(Cl)cc2)cc1F strictly below 100 nM?
Result string: T

Query string: Lab note: confirm whether the reported IC50 for this molecule is below 100 nM, equality not counting. molecule: O=c1nc(Nc2ccc(F)c(F)c2)n(Cc2ccc(Cl)cc2)c(=O)n1CCO
Result string: F

* * *

targetUnderTest: UniProt P56373
protocolText: P2X3 receptor inhibition, ATP-evoked Fluo-3 fluorescence (FDSS 3000)
conditions: C6BU-1 cell transfected with human P2X3 receptor gene
Recorded measurements of pIC50, one per entry
Would you please state pIC50, meaning minus log10 of the concentration in mol/L, as a bare number?

{"testSmiles": "CC(C)Oc1ccc(Nc2nc(=O)n(CC3CC3)c(=O)n2Cc2ccc(Cl)cc2)cc1F", "targetUnderTest": "UniProt P56373", "assayValue": 7.49}

Query string: Form field: reported pIC50 of CC(C)n1c(=O)nc(Nc2cccc(C(F)(F)F)c2)n(Cc2ccc(Cl)cn2)c1=O
Result string: 6.42

Query string: I am curious: what pIC50 value has been reported for Cc1cc(/N=c2\[nH]c(=O)n(CCCC(=O)O)c(=O)n2Cc2ccc(Cl)cc2)ccc1OC(C)C ?
Result string: 7.30

Query string: Please report the recorded pIC50 for Cc1cc2cc(/N=c3\[nH]c(=O)[nH]c(=O)n3Cc3ccc(Cl)cc3)ccc2o1 .
Result string: 6.72
